Tested on: erythroid progenitor cells (EPCs)
assayDetails: Fetal hemoglobin (HbF) ELISA in day 7 erythroid progenitor cells;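 further: for fetal hemoglobin induction normalized to vehicle-treated cells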
Format: cell-based, human
conditionSummary: Homo sapiens, Erythroid progenitor cell, HbF ELISA, day 7 EPCs, 5 days; read-out: EPC ELISA (pEC50 category) (converted)
Structures can show the parent of a compound that is named as a salt.
Kindly supply the reported EC50 values for the records listed here.

These recorded examples may help you get a feel for the data.
CCc1c(C#N)c(SC(C(N)=O)c2ccccc2)nc(N(C)CCN(C)C)c1C#N (stereo not shown) = 316 to 1000 nM
N#Cc1c(SC(C(N)=O)c2ccncc2)nc(N2CC[C@H](O)C2)c(C#N)c1C1CC1 (stereo partly shown) = 1000 to 31600 nM
CC(C)(N)C(=O)NC1CCN(c2nc(SC(C(N)=O)c3ccccc3)c(C#N)c(C3CC3)c2C#N)CC1 (stereo not shown) = 316 to 1000 nM
CCc1c(C#N)c(SCc2ccc(CNC(=O)CCN)cc2)nc(N2CCCN(C)CC2)c1C#N = > 31600 nM
CCc1c(C#N)c(SC(C(N)=O)c2ccccc2)nc(N2CC(NC(=O)CO)C2)c1C#N (stereo not shown) = 1000 to 31600 nM
CCc1c(C#N)c(SCc2ccc(N(C)S(C)(=O)=O)cc2)nc(N(C)CCN(C)CCOC)c1C#N = < 316 nM

Quick one: give me EC50 for each item below, same order please.
1. CCc1c(C#N)c(SC(C(N)=O)c2ccccc2)nc(N2CCC(NC(=O)OC(C)(C)C)CC2)c1C#N (stereo not shown)
2. CCc1c(C#N)c(SCc2ccc(N(C)S(C)(=O)=O)cc2)nc(N(C)CCNC2(C)CC2)c1C#N
3. CN(CCN)c1nc(SC(C(N)=O)c2ccccc2)c(C#N)c(C2CC2)c1C#N (stereo not shown) [Example 373, Hydrochloride]
4. CCc1c(C#N)c(SC(C(N)=O)c2ccccc2)nc(N2CCC(N3CCC(N)C3=O)CC2)c1C#N (stereo not shown) [Example 270, Formic Acid Salt]
5. CCc1c(C#N)c(SC(C(N)=O)c2ccccc2)nc(N(C)CC(=O)N2CCCC2)c1C#N (stereo not shown)
6. CCc1c(C#N)c(SC(C(N)=O)c2ccc(C(N)=O)cc2)nc(N(C)C)c1C#N (stereo not shown)
7. [2H][C@](Sc1nc(N(C)C)c(C#N)c(CC)c1C#N)(C(N)=O)c1ccccc1
8. CCc1c(C#N)c(OCCN(C)C)nc(SC(C(N)=O)c2ccccc2)c1C#N (stereo not shown)

Found:
1. 316 to 1000 nM
2. < 316 nM
3. 316 to 1000 nM
4. 1000 to 31600 nM
5. < 316 nM
6. 1000 to 31600 nM
7. 316 to 1000 nM
8. 316 to 1000 nM

Take each entry in turn and give its EC50.
1. CCc1c(C#N)c(SC(C(N)=O)c2ccccc2)nc(N(C)CCN2[C@H](C)CC[C@@H]2C)c1C#N (stereo partly shown)
2. CCc1c(C#N)c(SC(C(N)=O)c2ccc(F)cc2)nc(N2CC[C@H](N(C)C)C2)c1C#N (stereo partly shown)
3. CCc1c(C#N)c(C)nc(SC(C(N)=O)c2ccccc2)c1C#N (stereo not shown)
4. CCc1c(C#N)c(SCCN(C)C)nc(SC(C(N)=O)c2ccccc2)c1C#N (stereo not shown)
5. CCc1c(C#N)c(SC(C(N)=O)c2ccccc2)nc(N2CCC(NCC(=O)O)CC2)c1C#N (stereo not shown)
6. CCc1c(C#N)c(SCc2ccc(N(C)S(C)(=O)=O)cc2)nc(N2CCC(NCC(C)(C)C)CC2)c1C#N
7. CCc1c(C#N)c(SCc2ccc(N(C)S(C)(=O)=O)cc2)nc(N2CCC(NCCO)CC2)c1C#N

Found:
1: < 316 nM; 2: 1000 to 31600 nM; 3: 1000 to 31600 nM; 4: < 316 nM; 5: 1000 to 31600 nM; 6: < 316 nM; 7: < 316 nM

Required: EC50, one value per molecule below.
1. CCc1c(C#N)c(SCc2ccc(CNC(=O)Nc3ccccc3)cc2)nc(N2CCCN(C)CC2)c1C#N
2. CCc1c(C#N)c(SC(C(N)=O)c2ccccc2)nc(N(C)CC(=O)N(C)CCCO)c1C#N (stereo not shown)
3. CCc1c(C#N)c(SCc2ccc(NS(C)(=O)=O)c(F)c2)nc(N2CCCN(C)CC2)c1C#N
4. CN(C)C1CCCN(c2nc(SC(C(N)=O)c3ccccc3)c(C#N)c(C3CC3)c2C#N)C1 (stereo not shown)
5. CCc1c(C#N)c(SC(C(N)=O)c2ccccc2)nc(N(C)Cc2cnc[nH]2)c1C#N (stereo not shown)
6. CCc1c(C#N)c(SCc2ccc(COC(C)=O)cc2)nc(N2CCCN(C)CC2)c1C#N
7. CCc1c(C#N)c(SC(C(N)=O)c2ccccc2)nc(N2CCN(C3CCNCC3)CC2)c1C#N (stereo not shown)

Found:
["> 31600 nM", "< 316 nM", "1000 to 31600 nM", "< 316 nM", "1000 to 31600 nM", "1000 to 31600 nM", "316 to 1000 nM"]

Provide EC50 values for the following items, in order.
1. CCc1c(C#N)c(SCc2ccc(N3CCN(C)CC3)cc2)nc(N2CCCN(C)CC2)c1C#N
2. CCc1c(C#N)c(SC(C(N)=O)c2ccccc2)nc(N(C)CCN2CC[C@@H](N(C)C)C2)c1C#N (stereo partly shown)

Found:
["> 31600 nM", "< 316 nM"]

EC50 in this record for CCc1c(C#N)c(SC(C(N)=O)c2ccccc2)nc(N2CCC3(CC2)CNC(=O)O3)c1C#N (stereo not shown) : 1000 to 31600 nM
